Experiment: Binding affinity to Schistosoma mansoni BRD3 BD 2 assessed as dissociation constant by ITC analysis
quantity.measured: pKd
Note: the reply should be a number with no unit written.

*Q* Tell me measured pKd for CC(=O)N1c2ccc(-c3ccc(C(=O)O)cc3)cc2[C@H](Nc2ccc3sccc3c2)C[C@@H]1C please.
*A* 6.3

*Q* Tell me measured pKd for COc1cc2c3c(cnc2cc1-c1c(C)noc1C)NC(=O)C3[C@H](C)c1ccccn1 (stereo partly drawn) please.
*A* 5.2

*Q* Tell me measured pKd for CC(=O)N1c2ccc(-c3ccc(C(=O)O)cc3)cc2[C@H](Nc2ccc3[nH]ccc3c2)C[C@@H]1C please.
*A* 6.2

*Q* Tell me measured pKd for CC(=O)N1c2ccc(-c3ccc(C(=O)O)cc3)cc2[C@H](Nc2ccc(Cl)cc2)C[C@@H]1C please.
*A* 5.7

*Q* Tell me measured pKd for CC(=O)N1c2ccc(-c3ccc(C(=O)O)cc3)cc2[C@H](Nc2ccc3ncsc3c2)C[C@@H]1C please.
*A* 5.9

*Q* Tell me measured pKd for CC(=O)N1c2ccc(-c3ccc(C(=O)O)cc3)cc2[C@H](Nc2ccc3ccsc3c2)C[C@@H]1C please.
*A* 6.2

*Q* Tell me measured pKd for CC(=O)N1c2ccc(-c3ccc(C(=O)O)cc3)cc2[C@H](Nc2ccc3ncccc3c2)C[C@@H]1C please.
*A* 6.4

*Q* Tell me measured pKd for CC(=O)N1c2ccc(-c3ccc(C(=O)O)cc3)cc2[C@H](Nc2ccc3ccoc3c2)C[C@@H]1C please.
*A* 5.9

----------
Assay: Binding affinity to Schistosoma mansoni BRD3 BD 2 assessed as dissociation constant by ITC analysis
Answer each item with its documented Kd.
Lab book: enter the figure in nM, no units written.

*Q* Tell me measured Kd for CCOC(=O)c1ccc(-c2ccc3c(c2)[C@H](Nc2ccc4[nH]ccc4c2)C[C@H](C)N3C(C)=O)cc1 please.
*A* 651

*Q* Tell me measured Kd for CCOC(=O)c1ccc(-c2ccc3c(c2)[C@H](Nc2ccc4ccoc4c2)C[C@H](C)N3C(C)=O)cc1 please.
*A* 1180

*Q* Tell me measured Kd for CCOC(=O)c1ccc(-c2ccc3c(c2)[C@H](Nc2ccc4ncccc4c2)C[C@H](C)N3C(C)=O)cc1 please.
*A* 364

*Q* Tell me measured Kd for CCOC(=O)c1ccc(-c2ccc3c(c2)[C@H](Nc2ccc4ncsc4c2)C[C@H](C)N3C(C)=O)cc1 please.
*A* 1180

----------
Test system: Schistosoma mansoni
Experiment: Binding affinity to Schistosoma mansoni BRD3 BD 2 assessed as thermal stability at 50 uM by DSF analysis
Calls of active or inactive are those of the source. The rule behind the calls is not given here.
The reply should be one of these categories: true (active), false (inactive)

*Q* Each compound tested received a call. Report the one for Cc1sc2c(c1C)C(c1ccc(Cl)cc1)=N[C@@H](CC(=O)OC(C)(C)C)c1nnc(C)n1-2 .
*A* false

*Q* Each compound tested received a call. Report the one for Cc1noc(C)c1-c1cc(O)cc(C(O)c2ccccc2)c1 (centres undefined) .
*A* false

*Q* Each compound tested received a call. Report the one for CC(=O)N1c2ccc(-c3ccc(C(=O)O)cc3)cc2[C@H](Nc2ccc(Cl)cc2)C[C@@H]1C .
*A* true

*Q* Each compound tested received a call. Report the one for CC[C@@H]1C(=O)N(C)c2cnc(Nc3ccc(C(=O)NC4CCN(C)CC4)cc3OC)nc2N1C1CCCC1 .
*A* true

----------
Assay: Binding affinity to Schistosoma mansoni BRD3 BD 1 and 2 assessed as dissociation constant by ITC analysis
quantity.measured: Kd (nM)
Lab book: enter the figure in nM, no units written.

*Q* Tell me measured Kd for Cc1sc2c(c1C)C(c1ccc(Cl)cc1)=N[C@@H](CC(=O)OC(C)(C)C)c1nnc(C)n1-2 please.
*A* 445

----------
System: Schistosoma mansoni
Test: Antiparasitic activity against Schistosoma mansoni assessed as effect on schistosomula motility incubated for 72 hrs by high content imaging analysis
Format: functional, organism-based
Answer each item with its documented pEC50.
In textbook form, pEC50 equals minus log to base ten of the concentration in mol/L.

*Q* Tell me measured pEC50 for CC(=O)N1c2ccc(-c3ccc(C(=O)O)cc3)cc2[C@H](Nc2ccc3ncsc3c2)C[C@@H]1C please.
*A* 5.55

*Q* Tell me measured pEC50 for CC(=O)N1c2ccc(-c3ccc(C(=O)O)cc3)cc2[C@H](Nc2ccc3ccoc3c2)C[C@@H]1C please.
*A* 5.41

*Q* Tell me measured pEC50 for CC(=O)N1c2ccc(-c3ccc(C(=O)O)cc3)cc2[C@H](Nc2ccc3ncccc3c2)C[C@@H]1C please.
*A* 5.48

*Q* Tell me measured pEC50 for CC(=O)N1c2ccc(-c3ccc(C(=O)O)cc3)cc2[C@H](Nc2ccc3[nH]ccc3c2)C[C@@H]1C please.
*A* 5.74
